Source of measurements: paper PMC6149849

# System: Gram-positive bacterial strains, including MRSA and VISA pathogens
# Assay summary: Antibacterial activity over the panel of strains (summary statements)
# Type: cell-based
# Experimental context: reference bacterial strains
Result type: antibacterial activity in words

[
  {
    "Compound": "CCC(=O)[C]12[CH]3[CH]4[CH]5[CH]1[Mn]4532.[C-]#[O+].[C-]#[O+].[C-]#[O+] (stereo not shown)",
    "Target": "Gram-positive bacterial strains, including MRSA and VISA pathogens",
    "Result type": "antibacterial activity in words",
    "Measured": "not active"
  },
  {
    "Compound": "O=[C]=[Mn](=[C]=O)(=[C]=O)[CH]1C=CC=C1 [CymH, reference compound]",
    "Target": "Gram-positive bacterial strains, including MRSA and VISA pathogens",
    "Result type": "antibacterial activity in words",
    "Measured": "not active"
  }
]

* * *

# Test system: MDA-MB-231 (triple negative breast adenocarcinoma)
# Assay summary: MTT cytotoxicity assay, MDA-MB-231
# Type: cell-based, human
# Experimental context: Homo sapiens, MDA-MB-231, 24 h, read-out: cytotoxicity IC50, MDA-MB-231
Result type: IC50
Please don't drop the unit; write it after the number.

Tell us which IC50 value is on record for COc1cccc2c1C(=O)c1c(O)c3c(c(O)c1C2=O)C[C@@](O)(C(=O)CO)C[C@@H]3O[C@H]1C[C@H](N)[C@H](O)[C@H](C)O1 [DOX, doxorubicin, reference compound] 1.07 µM

* * *

# System: MDA-MB-231 (triple negative breast adenocarcinoma)
# Assay summary: MTT cytotoxicity assay, MDA-MB-231
# Format: cell-based, human
Result type: IC50 (µM)
Numbers only, in µM.

Worked examples follow.
[
  {
    "Compound": "Nc1ncnc2c1ncn2CCC(O)[C]12[CH]3[CH]4[CH]5[CH]1[Mn]45321[P](c2ccccc2)(c2ccccc2)CC[P]1(c1ccccc1)c1ccccc1.[C-]#[O+] (racemic) [Compound C]",
    "Target": "MDA-MB-231 (triple negative breast adenocarcinoma)",
    "Value unit": "µM",
    "IC50": 43.1
  },
  {
    "Compound": "O=C(CCn1cc(F)c(=O)[nH]c1=O)[C]12[CH]3[CH]4[CH]5[CH]1[Mn]4532.[C-]#[O+].[C-]#[O+].[C-]#[O+] (stereo not shown) [Compound 1]",
    "Target": "MDA-MB-231 (triple negative breast adenocarcinoma)",
    "Value unit": "µM",
    "IC50": 27.9
  }
]

Find the measured IC50 of CCC(=O)[C]12[CH]3[CH]4[CH]5[CH]1[Mn]4532.[C-]#[O+].[C-]#[O+].[C-]#[O+] (stereo not shown) [Compound 7, propionylocymantrene] and report it. 63

* * *

Hi there, I'd appreciate the recorded IC50 for every entry that follows.
# Test system: SKOV-3 (ovarian adenocarcinoma)
# Assay summary: MTT cytotoxicity assay, SKOV-3
# Type: cell-based, human
Answers are plain numbers, in µM.

[
  {
    "Molecule": "O=c1[nH]c(=O)n(CCC(O)[C]23[CH]4[CH]5[CH]6[CH]2[Mn]5643)cc1F.[C-]#[O+].[C-]#[O+].[C-]#[O+] (racemic) [Compound 2]",
    "Target": "SKOV-3 (ovarian adenocarcinoma)",
    "Value unit": "µM",
    "IC50": 97.5
  },
  {
    "Molecule": "CCC(=O)[C]12[CH]3[CH]4[CH]5[CH]1[Mn]4532.[C-]#[O+].[C-]#[O+].[C-]#[O+] (stereo not drawn) [Compound 7, propionylocymantrene]",
    "Target": "SKOV-3 (ovarian adenocarcinoma)",
    "Value unit": "µM",
    "IC50": 69.8
  },
  {
    "Molecule": "COC(CCn1cnc2c(N(C)C)ncnc21)[C]12[CH]3[CH]4[CH]5[CH]1[Mn]4532.[C-]#[O+].[C-]#[O+].[C-]#[O+] (racemic) [Compound 6]",
    "Target": "SKOV-3 (ovarian adenocarcinoma)",
    "Value unit": "µM",
    "IC50": 77.1
  }
]

Now look at this one.
Check the records and state IC50 for O=C(CCn1cc(F)c(=O)[nH]c1=O)[C]12[CH]3[CH]4[CH]5[CH]1[Mn]4532.[C-]#[O+].[C-]#[O+].[C-]#[O+] (stereo not drawn) [Compound 1] 75.1

* * *

# Test system: U87-MG (glioblastoma)
# Assay summary: MTT cytotoxicity assay, U87-MG
# Assay type: cell-based, human
Can you tell me pIC50 for the items I'm about to list?
One number for each entry, as −log10 of the molar value.

Solved entries (count: 2):
[
  {
    "Compound": "COC(CCn1cnc2c(N(C)C)ncnc21)[C]12[CH]3[CH]4[CH]5[CH]1[Mn]4532.[C-]#[O+].[C-]#[O+].[C-]#[O+] (racemic)",
    "pIC50": 3.88
  },
  {
    "Compound": "Nc1ncnc2c1ncn2CCC(O)[C]12[CH]3[CH]4[CH]5[CH]1[Mn]45321[P](c2ccccc2)(c2ccccc2)CC[P]1(c1ccccc1)c1ccccc1.[C-]#[O+] (racemic)",
    "pIC50": 4.42
  }
]

Supply measured pIC50 of O=C(CCn1cc(F)c(=O)[nH]c1=O)[C]12[CH]3[CH]4[CH]5[CH]1[Mn]4532.[C-]#[O+].[C-]#[O+].[C-]#[O+] (stereo not shown) in your reply. 4.19

* * *

# System: S. aureus ATCC 29213 (MSSA)
# Assay summary: Antibacterial liquid microdilution (CLSI M07-A8)
# Type: cell-based, Staphylococcus aureus
# Experimental context: 18 to 24 h
Result type: MIC, S. aureus ATCC 29213 (MSSA)

Below, each entry is followed by its recorded MIC, S. aureus ATCC 29213 (MSSA) result.
[
  {
    "Compound": "O=C(CCn1cc(F)c(=O)[nH]c1=O)[C]12[CH]3[CH]4[CH]5[CH]1[Mn]4532.[C-]#[O+].[C-]#[O+].[C-]#[O+] (stereo not drawn) [Compound 1]",
    "MIC, S. aureus ATCC 29213 (MSSA)": "64 µg/mL"
  },
  {
    "Compound": "O=c1[nH]c(=O)n(CCC(O)[C]23[CH]4[CH]5[CH]6[CH]2[Mn]5643[P](c2ccccc2)(c2ccccc2)c2ccccc2)cc1F.[C-]#[O+].[C-]#[O+] (racemic) [Compound 3]",
    "MIC, S. aureus ATCC 29213 (MSSA)": ">256 µg/mL"
  }
]

The following compounds each have a reported value; give each one's MIC, S. aureus ATCC 29213 (MSSA).
1. O=[C]=[Mn](=[C]=O)(=[C]=O)[CH]1C=CC=C1 [CymH, reference compound]
2. Nc1ncnc2c1ncn2CCC(O)[C]12[CH]3[CH]4[CH]5[CH]1[Mn]45321[P](c2ccccc2)(c2ccccc2)CC[P]1(c1ccccc1)c1ccccc1.[C-]#[O+] (racemic) [Compound C]
3. COC(CCn1cnc2c(N(C)C)ncnc21)[C]12[CH]3[CH]4[CH]5[CH]1[Mn]4532.[C-]#[O+].[C-]#[O+].[C-]#[O+] (racemic) [Compound 6]

>512 µg/mL
32 µg/mL
>512 µg/mL

* * *

So I've got a bunch of compounds here, and I need their pIC50 values.
# System: U87-MG (glioblastoma)
# Assay summary: MTT cytotoxicity assay, U87-MG
# Type: cell-based, human
# Experimental context: 24 h incubation, MTT; means ± SEM; read-out: cytotoxicity IC50, U87-MG
Numbers only, as −log10 of the molar value.

[
  {
    "Compound": "O=c1[nH]c(=O)n(CCC(O)[C]23[CH]4[CH]5[CH]6[CH]2[Mn]5643[P](c2ccccc2)(c2ccccc2)c2ccccc2)cc1F.[C-]#[O+].[C-]#[O+] (racemic)",
    "pIC50": 4.60
  },
  {
    "Compound": "O=[C]=[Mn](=[C]=O)(=[C]=O)[CH]1C=CC=C1 [CymH, reference compound]",
    "pIC50": 4.07
  }
]

Switching to the query record.
Tell me measured pIC50 for Nc1ncnc2c1ncn2CCC(O)[C]12[CH]3[CH]4[CH]5[CH]1[Mn]4532[P](c1ccccc1)(c1ccccc1)c1ccccc1.[C-]#[O+].[C-]#[O+] (racemic) please. 4.27

* * *

# Tested on: bloodstream forms of T. brucei clone 427-221a
# Assay summary: Trypanocidal assay, resazurin viability assay
# Assay type: cell-based, Trypanosoma brucei
# Experimental context: 50% growth inhibition
# Experimental: All of the cultures were maintained at 37 °C in a humidified atmosphere containing 5% of CO2. Toxicity assays were performed, as previously described, with some modifications. […] Thus, by measuring absorbance, the proliferation of cells can be easily determined. The change in absorbance was read with a microplate reader using a test wavelength of 570 nm and a reference wavelength of 630 nm. GI50 values were calculated by linear interpolation according to the method described by Huber and Koella. […]
Exercise: for every item that follows, state its recorded log10(GI50).
// do not treat as linear: log10 of GI50, unit µM

A selection of reference data follows.
[
  {
    "Compound": "O=c1[nH]c(=O)n(CCC(O)[C]23[CH]4[CH]5[CH]6[CH]2[Mn]5643[P](c2ccccc2)(c2ccccc2)c2ccccc2)cc1F.[C-]#[O+].[C-]#[O+] (racemic)",
    "Target": "bloodstream forms of T. brucei clone 427-221a",
    "Measured": 0.63
  },
  {
    "Compound": "Nc1ncnc2c1ncn2CCC(O)[C]12[CH]3[CH]4[CH]5[CH]1[Mn]4532[P](c1ccccc1)(c1ccccc1)c1ccccc1.[C-]#[O+].[C-]#[O+] (racemic)",
    "Target": "bloodstream forms of T. brucei clone 427-221a",
    "Measured": 0.50
  },
  {
    "Compound": "COC(CCn1cc(F)c(=O)n(C)c1=O)[C]12[CH]3[CH]4[CH]5[CH]1[Mn]4532.[C-]#[O+].[C-]#[O+].[C-]#[O+] (racemic)",
    "Target": "bloodstream forms of T. brucei clone 427-221a",
    "Measured": 1.47
  },
  {
    "Compound": "COC(CCn1cnc2c(N(C)C)ncnc21)[C]12[CH]3[CH]4[CH]5[CH]1[Mn]4532.[C-]#[O+].[C-]#[O+].[C-]#[O+] (racemic)",
    "Target": "bloodstream forms of T. brucei clone 427-221a",
    "Measured": 1.42
  },
  {
    "Compound": "O=[C]=[Mn](=[C]=O)(=[C]=O)[CH]1C=CC=C1 [CymH, reference compound]",
    "Target": "bloodstream forms of T. brucei clone 427-221a",
    "Measured": 1.65
  }
]

Turning to the following compound.
Item O=C(CCn1cc(F)c(=O)[nH]c1=O)[C]12[CH]3[CH]4[CH]5[CH]1[Mn]4532.[C-]#[O+].[C-]#[O+].[C-]#[O+] (stereo not shown) : provide log10(GI50) 0.48
